- test_system: Acetylcholinesterase (Torpedo californica, UniProt P04058)
- Sequence (P04058 whole entry): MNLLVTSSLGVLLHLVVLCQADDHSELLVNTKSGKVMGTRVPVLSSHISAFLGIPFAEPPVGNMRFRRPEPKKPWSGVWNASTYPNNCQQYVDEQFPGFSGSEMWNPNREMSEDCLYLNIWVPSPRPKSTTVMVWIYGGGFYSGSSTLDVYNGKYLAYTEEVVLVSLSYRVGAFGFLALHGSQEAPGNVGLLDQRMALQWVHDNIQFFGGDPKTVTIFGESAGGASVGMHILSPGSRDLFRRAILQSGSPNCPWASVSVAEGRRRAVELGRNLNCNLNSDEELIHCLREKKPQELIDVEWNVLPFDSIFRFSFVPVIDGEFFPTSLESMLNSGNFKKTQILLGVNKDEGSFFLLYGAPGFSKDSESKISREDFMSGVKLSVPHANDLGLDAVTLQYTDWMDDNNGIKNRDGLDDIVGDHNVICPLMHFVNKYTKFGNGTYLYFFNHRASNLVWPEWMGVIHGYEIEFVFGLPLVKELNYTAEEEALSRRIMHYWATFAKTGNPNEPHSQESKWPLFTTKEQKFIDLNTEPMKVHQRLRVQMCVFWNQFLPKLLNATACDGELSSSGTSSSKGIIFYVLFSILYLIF
- assay_protocol: Inhibition of Torpedo californica AChE (type VI-S) using acetylthiocholine iodide as substrate assessed as 5-thio-2-nitrobenzoate anion formation preincubated for 15 mins followed by substrate addition
- Design: species or system Tetronarce californica
Give IC50 for every item shown.
One number for each entry, in nM.

Solved entries (count: 2):
O=C(/C=C/c1cc[n+](Cc2ccccc2)cc1)c1cc2ccccc2o1; 64
O=C(/C=C/c1ccc[n+](Cc2cccc(Cl)c2Cl)c1)c1cc2cc(Br)ccc2o1; 2850

Asked: Fill in the blank: the reported IC50 of COc1cccc2cc(C(=O)/C=C/c3ccc[n+](Cc4ccc(Cl)cc4)c3)oc12 is ____.
Given back: 11200

Data provenance: ChEMBL document CHEMBL3632530
